assayed.target: T1, hFLT3-His fusion protein (human, UniProt P36888 27-541, limits assumed)
T1 construct: Soluble recombinant antigen used for immunisation, ELISA, SPR and BLI binning; also called recombinant hFLT3 protein; not shown: His tag
T1 sequence (looked up): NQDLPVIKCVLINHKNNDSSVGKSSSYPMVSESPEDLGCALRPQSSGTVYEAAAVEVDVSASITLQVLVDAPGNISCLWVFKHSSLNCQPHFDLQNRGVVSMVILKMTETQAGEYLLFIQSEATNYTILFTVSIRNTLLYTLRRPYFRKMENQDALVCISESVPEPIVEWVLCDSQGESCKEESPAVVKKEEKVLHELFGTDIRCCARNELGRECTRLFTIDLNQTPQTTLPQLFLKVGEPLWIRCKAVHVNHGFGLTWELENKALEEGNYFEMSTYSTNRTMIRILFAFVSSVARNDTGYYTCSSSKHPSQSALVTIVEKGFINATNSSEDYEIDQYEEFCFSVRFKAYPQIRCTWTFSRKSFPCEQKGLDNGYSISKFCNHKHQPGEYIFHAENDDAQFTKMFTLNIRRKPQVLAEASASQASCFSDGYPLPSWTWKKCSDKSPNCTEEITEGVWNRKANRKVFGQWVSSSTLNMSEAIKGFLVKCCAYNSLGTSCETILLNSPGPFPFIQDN
method: SPR, purified murine subclone mAb, hFLT3-His
Below: a set of entries, each annotated with reported Kd.
Write it as a number; the unit µM goes unstated.

Sample answers from the record:
- binder: "4H2.E3 (antibody, V domains shown, Purified murine mAb from a hybridoma subclone) VH: EVQLQESGPELVKPGASVKMSCKASGYTFTSYLMHWMKQKPGQGLEWIGYINPYSDGIKYNEKFRDKATLTSDKSSNTAYMELSSLTSEDSAVYYCAHSSGYVGYAMDYWGQGTSVTVSS VL: GIVMTQTTPSVPVTPGESVSISCRSSKSLLHSNGNTYLYWFLQRPGQSPQLLIYRMSNLASGVPDRFSGSGSGTTFTLRISRVEAEDVGVYYCMQHLEYPFTFGSGTKLEIK"
  units.symbol: "µM"
  Kd: 0.0176
- binder: "12C9.E5 (antibody, V domains shown, Purified murine mAb from a hybridoma subclone) VH: EVQLQESGAELVRPGASVKLSCKASGYIFTDYEIHWVKQTPVHGLEWIGAIDPETGITAYSQKFKGKATLTTDTSSSTAYMEFRSLTSEDSAVYYCTRGGLLYWGQGTSVTVSS VL: DVVMTQTPLSLSVTIGQPASISCKSSQSLLYSDGETYLNWLQQRPGQSPKRLMYQVSKLDPGIPDRFSGSGSETDFTLKISRVEAEDLGIYYCLQGTFYPHTFGGGTKLEIK"
  units.symbol: "µM"
  Kd: 0.0187
- binder: "15A11.C8 (antibody, V domains shown, Purified murine mAb from a hybridoma subclone) VH: EVQLQESGGGLVKTGGSRKLSCAASGFTFSDYGMHWVRHTPEKGLEWVVYISSGGNTIFYTDTVKGRFTISRDNAKNTLFLQMTSLRSEDTAVYFCVRQGYYYAMDYWGQGASVTVSS VL: DIQMTQTTSSLSASLGDRVTIRCRASQDITNYLNWYQQKPDGAVKLLISYTSILQSGVPSRFSGSGSGTDYSLTISNLEQGDVATYFCQQGSSLPWTFGGGTKLEIK"
  units.symbol: "µM"
  Kd: 0.0105
- binder: "12H10.G7 (antibody, V domains shown, Purified murine mAb from a hybridoma subclone) VH: EVQLQESGPELVKPGASVKMSCKASGYTFTRYVMHWVKQRPGQGLEWIGFINPYNDDTKYNEKFKGKATLTSDKSSSTAYMELSSLTSEDSAVYHCARWRQLGSLDSWGQGTTLTVSS VL: NIVLTQSPASLAVSLGQRATISCRASESVDTYGSSFVHWYQQKPGQPPKLLIYLASNLESGVPARFSGSGSRSDFTLTIDPVEADDAATYYCQQNNEEPWTFGGGTKLEIK"
  units.symbol: "µM"
  Kd: 0.0054

// below: Kd requested for another binder
Form: binder = 11F4.B9 (antibody, V domains shown, Purified murine mAb from a hybridoma subclone) VH: EVQLQESGPELVKPGASVKISCKASGYSFTGYYIHWVKQGPEKSLEWIGEIIPSTGSTIYNQKFKAKATLTVDKSSSTAYLQLKSLTSEDSAVYYCERWGDYYGRDYWGQGTSVTVSS VL: DIVLTQSPASLAVSLGQRATISCRASESVDIYGNSFMHWYQQKPGQPPKLLIYRASNLESGIPARFSGSGSRTDFTLTINPVEADDVATYYCQQSNEDPRTFGGGTKLEIK ; Kd = 0.0017

Source of measurements: patent US20240117054A1
